measured.endpoint: melting point

Solved cases (5 shown):
{"columns": ["compound", "melting point"],
 "data": [
  ["C[C@H]1CCCN(C(=O)[C@@H]2Cc3ccccc3N2c2cccnn2)C1 [Example 63]", "143 to 145 °C"],
  ["C[C@@H]1C[C@H](C)CN(C(=O)[C@@H]2Cc3ccccc3N2c2ncccn2)C1 [Example 24]", "163 to 164 °C"],
  ["C[C@H]1CCCN(C(=O)[C@@H]2Cc3ccccc3N2c2ccc(=O)n(CC3CCC3)n2)C1 (hydrate or solvate) [Example 125]", "221 to 223 °C"],
  ["C[C@H]1CCCN(C(=O)[C@@H]2Cc3ccccc3N2c2ccc(=O)n(CC3CCCCC3)n2)C1 [Example 77]", "215 to 217 °C"],
  ["C[C@@H]1C[C@H](C)CN(C(=O)[C@@H]2Cc3ccccc3N2c2nc3ccccc3o2)C1 [Example 18]", "165 to 167 °C"]
]}

Could you now look at the following compound, please?
// melting point lookup, key: C[C@H]1CCCN(C(=O)[C@@H]2Cc3ccccc3N2c2cnc3ccccc3n2)C1 [Example 26]
160 to 161 °C

These data points were gathered from patent US20080221114A1.
